- assayed system: TLR9 (Homo sapiens, UniProt Q9NR96)
- Construct: expressed in transfected cells; host or cells: HEK293
- Sequence (Q9NR96 26-1032): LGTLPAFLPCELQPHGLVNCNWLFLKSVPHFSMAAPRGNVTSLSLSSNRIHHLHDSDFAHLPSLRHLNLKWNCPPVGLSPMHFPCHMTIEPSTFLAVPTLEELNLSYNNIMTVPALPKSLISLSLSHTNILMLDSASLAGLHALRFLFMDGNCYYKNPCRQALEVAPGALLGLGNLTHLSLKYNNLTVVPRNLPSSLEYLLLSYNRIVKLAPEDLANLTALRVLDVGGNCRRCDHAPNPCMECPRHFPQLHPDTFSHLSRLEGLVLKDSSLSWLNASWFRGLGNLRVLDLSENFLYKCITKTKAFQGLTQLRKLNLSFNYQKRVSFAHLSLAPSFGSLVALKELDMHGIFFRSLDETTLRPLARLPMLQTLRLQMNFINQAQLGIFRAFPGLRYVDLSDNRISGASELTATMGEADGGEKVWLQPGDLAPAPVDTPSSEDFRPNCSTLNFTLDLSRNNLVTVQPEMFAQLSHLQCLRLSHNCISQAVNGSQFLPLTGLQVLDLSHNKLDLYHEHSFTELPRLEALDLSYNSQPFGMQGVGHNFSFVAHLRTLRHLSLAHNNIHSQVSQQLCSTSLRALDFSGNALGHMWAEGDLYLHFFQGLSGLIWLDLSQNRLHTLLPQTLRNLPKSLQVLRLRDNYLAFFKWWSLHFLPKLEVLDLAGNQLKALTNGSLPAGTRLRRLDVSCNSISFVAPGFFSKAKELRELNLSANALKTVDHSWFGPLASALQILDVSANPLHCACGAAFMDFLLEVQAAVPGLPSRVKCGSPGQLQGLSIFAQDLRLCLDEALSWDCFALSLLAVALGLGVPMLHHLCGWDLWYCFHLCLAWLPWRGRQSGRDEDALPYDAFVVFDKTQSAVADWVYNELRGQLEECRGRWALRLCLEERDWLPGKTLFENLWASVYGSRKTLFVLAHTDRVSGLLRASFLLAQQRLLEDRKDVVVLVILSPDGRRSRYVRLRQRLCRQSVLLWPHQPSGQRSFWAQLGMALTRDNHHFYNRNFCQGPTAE
- assay summary: TLR9 screening of (+)-morphinan library, SEAP reporter in HEK293 cells expressing TLR9
- Type: cell-based
- experimental setup: HEK293, read-out: % Inhibition (mean), 100 nM; activator ODN2006
Short version: inhibition at 0.1 µM at least 20% is Criterion met, less is Criterion not met.

Q: Threshold query (inhibition at 0.1 µM >= 20%) on COc1ccc2c3c1O[C@@H]1C(=O)CC[C@@H]4[C@H](C2)N(CC2CC2)CC[C@@]314
A: Criterion met

Q: Threshold query (inhibition at 0.1 µM >= 20%) on COc1ccc2c3c1OC1C(OC(C)=O)CCC4C(C2)N(C)CC[C@]341 (some centres unmarked)
A: Criterion not met

Q: Threshold query (inhibition at 0.1 µM >= 20%) on COC1=C[C@]2(O)[C@@H]3Cc4ccc(OC)c(O)c4[C@]2(CCN3C)CC1=O
A: Criterion not met

Q: Threshold query (inhibition at 0.1 µM >= 20%) on COC1=CCC2[C@@H]3Cc4ccc(OC)c5c4[C@]2(CCN3C(=O)Oc2ccccc2)[C@@H]1O5 (some centres unmarked)
A: Criterion not met

Q: Threshold query (inhibition at 0.1 µM >= 20%) on COc1ccc2c3c1O[C@@H]1C(=O)CC[C@@H]4[C@H](C2)NCC[C@@]314
A: Criterion met

Q: Threshold query (inhibition at 0.1 µM >= 20%) on COc1ccc2c(c1OCc1ccccc1)[C@@]13CCN[C@@H](C2)[C@H]1CC(OC)C(=O)C3 (some centres unmarked)
A: Criterion not met

Q: Threshold query (inhibition at 0.1 µM >= 20%) on COc1cc(Br)c2c(c1O)[C@@]13CCNC(C2)C1CCC(=O)C3 (some centres unmarked)
A: Criterion not met

Q: Threshold query (inhibition at 0.1 µM >= 20%) on O=C1CC[C@@H]2[C@@H]3Cc4ccc(OCc5ccccc5)c5c4[C@]2(CCN3CC2CC2)[C@@H]1O5
A: Criterion met
